Test system: HOP-62 NSCLC
Assay: NCI-60 one-dose screen, 48 h (100 = growth as untreated, 0 = no growth, -100 = all killed)
Conditions: 10 µM unless noted
Compounds without any hit were thinned out: in the full panel of roughly 83,000, 20% have a hit.
We begin with a simple list: items and their reported growth.
OBSERVATION TYPE: growth (%)

>  <COMPOUND>
COc1cc2c(C#N)n3c(c2cc1OC)C(=O)C(c1ccccc1)Oc1ccccc1-3 (stereo not given)

>  <UNIT LABEL>
%

>  <QUANTITATIVE READOUT>
53.8

$$$$
>  <COMPOUND>
COc1ccc(-c2nn(-c3ccccc3)cc2/C=C2\SC(=S)N(CCc3ccc(O)cc3)C2=O)cc1

>  <UNIT LABEL>
%

>  <QUANTITATIVE READOUT>
97.1

$$$$
>  <COMPOUND>
Cc1ccc2c(c1)C(=O)/C(=C/c1ncc([N+](=O)[O-])n1C)O2

>  <UNIT LABEL>
%

>  <QUANTITATIVE READOUT>
61.2

$$$$
>  <COMPOUND>
CCOC(=O)c1c2c(c(C)n1Cc1ccccc1)-c1nc(N)ncc1CC2

>  <UNIT LABEL>
%

>  <QUANTITATIVE READOUT>
82.4

$$$$
>  <COMPOUND>
C[N+]1(CCc2ccccc2)CCC(CCC2CC[N+](C)(CCc3ccccc3)CC2)CC1 (stereo not given)

>  <UNIT LABEL>
%

>  <QUANTITATIVE READOUT>
66.9

$$$$

---

Tested on: UACC-62 melanoma
Assay: NCI-60 one-dose screen, 48 h (100 = growth as untreated, 0 = no growth, -100 = all killed)
Conditions: 10 µM unless noted
Compounds without any hit were thinned out: in the full panel of roughly 83,000, 20% have a hit. Activity calls are given as the source filed them. Rule for the calls: active = growth percent below 10; inactive = the rest.
Below, each entry is listed alongside its reported growth.

>  <GIVEN SMILES>
COc1cccc(-c2nnc(N)o2)c1

>  <growth>
99.5% (inactive)

$$$$
>  <GIVEN SMILES>
NC(N)=N/N=C(/c1ccccc1)c1ccc(Cl)cc1

>  <growth>
74.4% (inactive)

$$$$
>  <GIVEN SMILES>
O=C(Nc1ccncc1)C(=O)c1cn(S(=O)(=O)c2cccc(F)c2)c2ccccc12

>  <growth>
37.1% (inactive)

$$$$
>  <GIVEN SMILES>
N=c1ccn2c(n1)O[C@@H]1[C@@H](O)[C@H](CO)O[C@@H]12

>  <growth>
81.2% (inactive)

$$$$
>  <GIVEN SMILES>
CCOC(=O)c1ccccc1OC(=O)NNc1ccccc1

>  <growth>
21.5% (inactive)

$$$$
>  <GIVEN SMILES>
CNc1ccc(CSc2ccc(Cl)cc2)cc1

>  <growth>
83% (inactive)

$$$$

---

System: SW-620 colon
Assay: NCI-60 one-dose screen, 48 h
Settings: 10 µM unless noted
About 83,000 compounds went through this panel and 20% of them were active in at least one assay; those are over-represented in the sample as a whole. Active and inactive are the calls of the source. Rule for the calls: active = growth percent below 10; inactive = the rest.
Outcome codes: 1 for active, 0 for inactive

>  <MOLECULE>
O=C1Nc2ccccc2C12Nc1cc(Cl)ccc1S2 (stereo unspecified)

>  <ANSWER LABEL>
0

$$$$
>  <MOLECULE>
O=[N+]([O-])c1ccc(Oc2cccc(C(F)(F)F)c2)c([N+](=O)[O-])c1

>  <ANSWER LABEL>
0

$$$$
>  <MOLECULE>
COC1=CC(c2ccc[nH]2)=N/C1=C\c1[nH]c(C)c(C(=O)CCC(=O)Oc2ccc3c(c2)CCC2C3CC[C@]3(C)C(=O)CC[C@@H]23)c1C (stereo partly specified)

>  <ANSWER LABEL>
0

$$$$
>  <MOLECULE>
CC(C)C(=O)Cc1cnccn1

>  <ANSWER LABEL>
0

$$$$
>  <MOLECULE>
Cc1ccc(NC(=O)CSc2nnc3n(Cc4ccccc4)c(=O)c4c(C)c(C(N)=O)sc4n23)cc1

>  <ANSWER LABEL>
0

$$$$
>  <MOLECULE>
Cc1cc(C(=O)O)c(C)cc1C(=O)O

>  <ANSWER LABEL>
0

$$$$
>  <MOLECULE>
COc1ccc(-c2oc3cc(O)c(OC)c(O)c3c(=O)c2OC)cc1O

>  <ANSWER LABEL>
0

$$$$
>  <MOLECULE>
CCN(CC)CCOc1ccccc1-n1c(C)ccc1-c1ccccc1

>  <ANSWER LABEL>
0

$$$$
>  <MOLECULE>
CCCCCCCCCCCCNc1ncnc2[nH]ncc12

>  <ANSWER LABEL>
0

$$$$
>  <MOLECULE>
COc1ccc(-c2cn(-c3ccccc3)c(-c3ccccc3)n2)cc1OC

>  <ANSWER LABEL>
1

$$$$
>  <MOLECULE>
O=C(Nc1ccc(Cl)cc1Cl)Nc1ccc(-c2cccnc2)cc1N1CCC(CO)CC1

>  <ANSWER LABEL>
0

$$$$
>  <MOLECULE>
O=C(/C(=N/O)S(=O)(=O)c1ccccc1)c1cccs1

>  <ANSWER LABEL>
0

$$$$
>  <MOLECULE>
N#Cc1c(N2CCOCC2)nc2sc3cc(Cl)ccc3n2c1=N

>  <ANSWER LABEL>
0

$$$$
>  <MOLECULE>
C[n+]1ccc(Nc2ccc(NC(=O)c3ccc(Nc4cc[n+](C)c5ccc(N)cc45)cc3)cc2)cc1

>  <ANSWER LABEL>
0

$$$$
>  <MOLECULE>
CC1=C(C(=O)Nc2ccccc2)C(c2ccc3c(c2)OCCO3)NC(=O)N1 (stereo unspecified)

>  <ANSWER LABEL>
0

$$$$
>  <MOLECULE>
CCC[C@H](N[C@@H](C)C(=O)N1[C@H](C(=O)O)C[C@@H]2CCCC[C@@H]21)C(=O)OCC

>  <ANSWER LABEL>
0

$$$$
>  <MOLECULE>
O=c1ccn(C2OC(CO)C(O)C2F)c(=O)[nH]1 (stereo unspecified)

>  <ANSWER LABEL>
0

$$$$
>  <MOLECULE>
CC(O)c1nc2c(c(=O)n(C)c(=O)n2C)n1C (stereo unspecified)

>  <ANSWER LABEL>
0

$$$$
>  <MOLECULE>
CC/C=C\C=C/C(=O)N/C=C/CC1Cc2cccc(O)c2C(=O)O1 (stereo unspecified)

>  <ANSWER LABEL>
0

$$$$
>  <MOLECULE>
N=c1ccn2c(n1)O[C@@H]1[C@@H](O)[C@H](CO)O[C@@H]12

>  <ANSWER LABEL>
0

$$$$
>  <MOLECULE>
Cc1c(NCc2nnc3n(Cc4ccccc4)c(=O)c4c5c(sc4n23)CCCC5)c(=O)n(-c2ccccc2)n1C

>  <ANSWER LABEL>
0

$$$$
>  <MOLECULE>
O=C(O)C(=O)O

>  <ANSWER LABEL>
0

$$$$
>  <MOLECULE>
Cc1ccsc1/C=C/C1=NCCCN1C

>  <ANSWER LABEL>
0

$$$$
>  <MOLECULE>
Cc1cc(C)n(C(=O)c2nn(-c3ccc(Cl)cc3)cc2O)n1

>  <ANSWER LABEL>
0

$$$$
>  <MOLECULE>
CCC(CC)NCCCCCNc1cc(OC)cc2cccnc12

>  <ANSWER LABEL>
0

$$$$
>  <MOLECULE>
O=C(Nc1ccncc1)C(=O)c1cn(S(=O)(=O)c2cccc(F)c2)c2ccccc12

>  <ANSWER LABEL>
0

$$$$
>  <MOLECULE>
ClC1=C(Cl)C(Cl)=C(Cl)C1=C/C=C/c1ccccc1

>  <ANSWER LABEL>
1

$$$$
>  <MOLECULE>
COc1ccc(-c2c(-c3cc(OC)c(OC)c(OC)c3)noc2N)cc1

>  <ANSWER LABEL>
0

$$$$
>  <MOLECULE>
CN1COc2ccc3ccccc3c2C1

>  <ANSWER LABEL>
0

$$$$
>  <MOLECULE>
Cc1nn(-c2ccc(Br)cc2)c2nc3c(nc12)C(=O)C(=O)c1ccccc1-3

>  <ANSWER LABEL>
0

$$$$
>  <MOLECULE>
ClC1=C(Cl)C(Cl)=C(Cl)C1=Cc1ccc(Cl)cc1

>  <ANSWER LABEL>
1

$$$$
>  <MOLECULE>
CN1C(=O)/C(=C/c2nc(-c3cccc(F)c3)n3ccccc23)c2ccccc21

>  <ANSWER LABEL>
0

$$$$
>  <MOLECULE>
COc1ccc2c(c1)C(=O)/C(=C/c1ccc([N+](=O)[O-])s1)O2

>  <ANSWER LABEL>
1

$$$$
>  <MOLECULE>
COc1cc2c(-c3nc4cc(Cl)c(F)cc4s3)cc(=O)oc2c(C)c1OC

>  <ANSWER LABEL>
1

$$$$
>  <MOLECULE>
Cc1ccc(NC(=O)Nc2ccc(-c3cccnc3)cc2N2CCC(CO)CC2)cc1

>  <ANSWER LABEL>
0

$$$$
>  <MOLECULE>
CO[C@H]1/C=C/O[C@@]2(C)Oc3c(C)c(O)c4c(O)c(c(/C=N/N5C(C)CN(Cc6ccccc6)CC5C)c(O)c4c3C2=O)NC(=O)/C(C)=C\C=C\[C@H](C)[C@H](O)[C@@H](C)[C@@H](O)[C@@H](C)[C@H](OC(C)=O)[C@@H]1C (stereo partly specified)

>  <ANSWER LABEL>
0

$$$$
>  <MOLECULE>
C[C@]12CC[C@@H]3c4ccc(O)c([N+](=O)[O-])c4CC[C@H]3[C@@H]1CC[C@@H]2NS(=O)(=O)c1ccc(C(F)(F)F)cc1

>  <ANSWER LABEL>
0

$$$$
>  <MOLECULE>
COc1ccc(-c2cc(Cc3cccs3)c(=O)n(Cn3ccc4ccccc43)n2)cc1

>  <ANSWER LABEL>
0

$$$$
>  <MOLECULE>
C=C(C)[C@@H]1C/C=C(/C=O)CC[C@@H]2O[C@@]2(C)CC/C=C(\C)CC1

>  <ANSWER LABEL>
0

$$$$
>  <MOLECULE>
COc1cccc(CCC2C(=O)CCCC2=O)c1

>  <ANSWER LABEL>
0

$$$$
>  <MOLECULE>
Nc1nonc1-c1nc2ccccc2n1CC(=O)Nc1ccc2c(c1)COC2=O

>  <ANSWER LABEL>
0

$$$$
